Molecular target: Abf1 (UniProt P14164)
Sequence: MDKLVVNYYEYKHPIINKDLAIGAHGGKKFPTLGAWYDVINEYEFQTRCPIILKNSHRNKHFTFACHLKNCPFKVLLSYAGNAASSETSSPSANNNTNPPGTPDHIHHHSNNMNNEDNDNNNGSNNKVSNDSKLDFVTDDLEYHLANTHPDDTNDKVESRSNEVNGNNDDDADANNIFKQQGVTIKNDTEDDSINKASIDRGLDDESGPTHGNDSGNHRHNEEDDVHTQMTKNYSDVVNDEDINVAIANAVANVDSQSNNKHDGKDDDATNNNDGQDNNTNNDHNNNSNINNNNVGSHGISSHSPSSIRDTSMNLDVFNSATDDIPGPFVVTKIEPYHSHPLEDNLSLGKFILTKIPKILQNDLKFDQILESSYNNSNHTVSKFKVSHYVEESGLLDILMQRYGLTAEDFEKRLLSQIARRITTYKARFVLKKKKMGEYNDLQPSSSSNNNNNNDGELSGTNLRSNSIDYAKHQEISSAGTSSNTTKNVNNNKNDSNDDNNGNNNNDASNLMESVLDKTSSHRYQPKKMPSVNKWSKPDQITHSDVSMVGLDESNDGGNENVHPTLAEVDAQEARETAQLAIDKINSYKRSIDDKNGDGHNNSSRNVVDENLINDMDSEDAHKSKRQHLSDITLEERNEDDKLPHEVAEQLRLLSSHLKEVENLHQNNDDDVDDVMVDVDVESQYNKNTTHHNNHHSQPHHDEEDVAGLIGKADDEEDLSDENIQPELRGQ
Assay: PBM E-score (8-mer binding enrichment) (E-score (-0.5 to 0.5)); higher = stronger / more preferred TF binding
Settings: protein concentration: 200 nM; construct: GST-full length
Whole data set: some 33,000 sequences, median “E-score (-0.5 to 0.5)” near -0.015, cut for the highest 2% near 0.3. The list comes from a sample in which the highest values are over-represented; it also holds close analogues and randomly drawn sequences.
MEASUREMENT LABEL: PBM E-score

CGATATCG has a reported PBM E-score of 0.372

CTATGATA has a reported PBM E-score of 0.143

AGTGTTCA has a reported PBM E-score of -0.11

ATATGATA has a reported PBM E-score of 0.316

====

Biological target: Abf1 (UniProt P14164)
Sequence: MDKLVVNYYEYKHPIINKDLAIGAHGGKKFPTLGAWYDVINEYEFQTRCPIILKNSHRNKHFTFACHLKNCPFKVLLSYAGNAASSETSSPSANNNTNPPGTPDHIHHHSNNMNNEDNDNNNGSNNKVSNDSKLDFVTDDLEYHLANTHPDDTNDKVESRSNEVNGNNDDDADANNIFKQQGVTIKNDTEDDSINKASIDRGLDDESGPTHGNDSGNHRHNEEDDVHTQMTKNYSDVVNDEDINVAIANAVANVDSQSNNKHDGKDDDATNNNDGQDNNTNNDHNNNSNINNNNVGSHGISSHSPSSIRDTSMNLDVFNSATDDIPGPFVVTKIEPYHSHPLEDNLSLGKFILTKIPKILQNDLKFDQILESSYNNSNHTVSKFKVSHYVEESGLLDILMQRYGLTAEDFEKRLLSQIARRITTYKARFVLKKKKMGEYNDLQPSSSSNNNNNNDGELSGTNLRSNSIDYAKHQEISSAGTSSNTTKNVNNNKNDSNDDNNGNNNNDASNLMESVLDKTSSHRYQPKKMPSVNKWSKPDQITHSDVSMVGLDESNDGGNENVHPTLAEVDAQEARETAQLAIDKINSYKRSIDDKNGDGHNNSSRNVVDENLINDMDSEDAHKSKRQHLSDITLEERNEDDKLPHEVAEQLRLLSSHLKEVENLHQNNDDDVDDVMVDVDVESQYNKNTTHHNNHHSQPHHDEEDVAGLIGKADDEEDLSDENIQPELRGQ
Experiment: PBM E-score (8-mer binding enrichment) (E-score (-0.5 to 0.5)); higher = stronger / more preferred TF binding
Settings: protein concentration: 200 nM; construct: GST-full length
Over roughly 33,000 sequences, “E-score (-0.5 to 0.5)” has its median near -0.015; the highest 2% begin near 0.3. Only a selection was taken, and the highest values are over-represented in it overall.
Exercise: for every item that follows, state its recorded PBM E-score.

CTAACCTC has a reported PBM E-score of -0.0908

CATTAGGC has a reported PBM E-score of 0.0172

GGAGATGA has a reported PBM E-score of 0.16

CGCTGCCG has a reported PBM E-score of -0.0244

ACTCTATA has a reported PBM E-score of 0.145

CTCACTGC has a reported PBM E-score of -0.0817

AGAGTGAT has a reported PBM E-score of 0.387

AGTACGAA has a reported PBM E-score of 0.368

ATTAGTGC has a reported PBM E-score of 0.148

GCTCCTGA has a reported PBM E-score of -0.23

TACAACCA has a reported PBM E-score of -0.0973
